subject-of-test: Btk enzyme (His-Btk) (Homo sapiens (Human), UniProt Q06187)
Sequence (Q06187 whole entry): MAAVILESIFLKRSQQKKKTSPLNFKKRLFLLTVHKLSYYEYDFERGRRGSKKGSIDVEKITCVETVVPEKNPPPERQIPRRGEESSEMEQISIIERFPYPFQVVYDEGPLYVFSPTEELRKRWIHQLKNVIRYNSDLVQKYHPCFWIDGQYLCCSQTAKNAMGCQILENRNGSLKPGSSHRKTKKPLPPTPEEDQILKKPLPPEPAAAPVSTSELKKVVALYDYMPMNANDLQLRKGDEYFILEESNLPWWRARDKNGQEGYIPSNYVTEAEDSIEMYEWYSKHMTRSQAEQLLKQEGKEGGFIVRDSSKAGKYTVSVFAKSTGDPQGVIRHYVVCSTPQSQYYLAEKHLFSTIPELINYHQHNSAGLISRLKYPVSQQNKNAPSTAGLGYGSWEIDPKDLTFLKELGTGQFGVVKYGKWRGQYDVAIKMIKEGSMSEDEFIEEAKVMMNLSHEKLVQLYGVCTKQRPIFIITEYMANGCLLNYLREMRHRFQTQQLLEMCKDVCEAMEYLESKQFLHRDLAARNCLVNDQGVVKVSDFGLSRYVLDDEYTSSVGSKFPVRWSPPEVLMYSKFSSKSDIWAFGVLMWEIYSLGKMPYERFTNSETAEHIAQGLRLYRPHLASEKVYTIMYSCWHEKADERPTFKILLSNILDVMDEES
experiment-description: Btk enzyme activity, IMAP fluorescence polarization assay (Assay Method A)
Counter-ions that a name gives are not always drawn.
readout-type: EC50

Example cases with answers are listed next.
> print(dat)
                                   compound        measured
1  COc1cccc(-c2cnc(N)c3c(-c4ccc(C(=O)Nc5cc(C(F)(F)F)ccn5)cc4)nc([C@@H]4CCCN(C(=O)C5(C)COC5)C4)n23)c1  0.01 to 0.1 µM
2  COCCC(=O)N1CCC[C@@H](c2nc(-c3ccc(C(=O)Nc4ccccn4)nc3)c3c(N)nccn23)C1 [Example 287, TFA salt]  0.01 to 0.1 µM
3  Nc1nccn2c([C@@H]3CCCN(C(=O)C(F)(F)F)C3)nc(-c3ccc(C(=O)Nc4cc(C(F)(F)F)ccn4)cc3)c12       < 0.01 µM
4  Nc1nccn2c([C@@H]3CCCN(C(=O)CO)C3)nc(-c3ccc(C(=O)Nc4ccccn4)cc3)c12  0.01 to 0.1 µM
5  Cc1nc(-c2ccc(C(=O)Nc3cc(C(F)(F)F)ccn3)cc2)c2c(N)ncc(C(=O)NCc3cnco3)n12     0.1 to 1 µM
6  CC(C)(C)NC(=O)C1CCCN(c2nc(-c3ccc(C(=O)Nc4ccccn4)cc3)c3c(N)nccn23)C1 (stereo not shown) [Example 228, TFA salt]  0.01 to 0.1 µM

For the next question, use this compound.
Challenge: Please provide the recorded EC50 for CC1(C)CC(c2nc(-c3ccc(C(=O)Nc4ccccn4)cc3)c3c(N)nccn23)CCO1 (stereo not shown) , tested on Btk enzyme (His-Btk) (Homo sapiens (Human), UniProt Q06187).
Response given: 0.01 to 0.1 µM
